Target: T1, human LILRB2 expressed on cells (293T-LILRB2, CHO-K1-LILRB2) (human, UniProt Q8N423 22-597)
T1 construct: whole, on cells; the cell line is named under assay; also called HEK293T-LILRB2
T1 sequence (Q8N423 22-597): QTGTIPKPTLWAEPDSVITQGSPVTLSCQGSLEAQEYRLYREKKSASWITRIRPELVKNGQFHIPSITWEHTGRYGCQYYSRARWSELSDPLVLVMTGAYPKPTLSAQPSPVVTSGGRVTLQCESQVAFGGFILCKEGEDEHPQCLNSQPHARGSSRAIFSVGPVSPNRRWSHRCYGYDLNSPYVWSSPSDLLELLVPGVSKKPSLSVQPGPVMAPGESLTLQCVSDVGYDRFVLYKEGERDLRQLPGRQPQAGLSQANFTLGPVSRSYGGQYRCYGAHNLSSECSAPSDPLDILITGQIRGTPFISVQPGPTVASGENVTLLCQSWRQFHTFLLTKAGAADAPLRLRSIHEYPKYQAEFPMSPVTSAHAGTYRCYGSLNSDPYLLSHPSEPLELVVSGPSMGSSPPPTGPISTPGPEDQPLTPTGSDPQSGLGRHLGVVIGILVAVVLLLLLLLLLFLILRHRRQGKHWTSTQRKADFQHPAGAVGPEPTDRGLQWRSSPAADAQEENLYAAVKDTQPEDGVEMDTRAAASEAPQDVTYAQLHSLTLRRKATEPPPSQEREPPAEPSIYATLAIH
Experiment: flow cytometry, 293T-LILRB2 cells
outcome.measure: Bmax
Answer with a number only.

Recorded Bmax of Antibody 2E1_FE1 (antibody, V domains shown) VH: EVQLVESGGGLVQPGGSLRLSCAVSGYSITSGYYWNWIRQAPGKGLEWVAYISYDGNMNYNPSLKNRFTISRDTSKNTFYLQMNSLRAEDTAVYYCAREESTMITTAWFAYWGQGTLVTVSS VL: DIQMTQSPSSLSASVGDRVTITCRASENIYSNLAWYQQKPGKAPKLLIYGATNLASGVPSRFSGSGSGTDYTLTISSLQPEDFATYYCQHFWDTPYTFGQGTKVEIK , please.
690000

Recorded Bmax of Antibody 2E1_GH3 (antibody, V domains shown) VH: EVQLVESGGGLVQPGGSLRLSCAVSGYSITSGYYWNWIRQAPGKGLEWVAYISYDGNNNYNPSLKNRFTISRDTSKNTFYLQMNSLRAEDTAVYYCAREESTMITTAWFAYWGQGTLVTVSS VL: DIQMTQSPSSLSASVGDRVTITCRASENIYSNLAWYQQKPGKAPKLLIYGATNLSSGVPSRFSGSGSGTDYTLTISSLQPEDFATYYCQHFWDTPYTFGQGTKVEIK , please.
641000

Recorded Bmax of Antibody 2E1_GB7 (antibody, V domains shown) VH: EVQLVESGGGLVQPGGSLRLSCAVSGYSITSGYYWWWIRQAPGKGLEWVAYISYDGNNNYNPSLKNRFTISRDTSKNTFYLQMNSLRAEDTAVYYCAREESTMITTAWFAYWGQGTLVTVSS VL: DIQMTQSPSSLSASVGDRVTITCLASENIYSNLAWYQQKPGKAPKLLIYGATNLASGVPSRFSGSGSGTDYTLTISSLQPEDFATYYCQHFWDTPYTFGQGTKVEIK , please.
636000

Recorded Bmax of Antibody 2E1_GH4 (antibody, V domains shown) VH: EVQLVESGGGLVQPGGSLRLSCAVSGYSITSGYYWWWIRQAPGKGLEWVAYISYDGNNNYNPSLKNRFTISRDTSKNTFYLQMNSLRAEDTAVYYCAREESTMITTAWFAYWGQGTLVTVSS VL: DIQMTQSPSSLSASVGDRVTITCRASENIYSNLAWYQQKPGKAPKLLIYGATNFASGVPSRFSGSGSGTDYTLTISSLQPEDFATYYCQHFWDTPYTFGQGTKVEIK , please.
646000

Recorded Bmax of Antibody 2E1_GE6 (antibody, V domains shown) VH: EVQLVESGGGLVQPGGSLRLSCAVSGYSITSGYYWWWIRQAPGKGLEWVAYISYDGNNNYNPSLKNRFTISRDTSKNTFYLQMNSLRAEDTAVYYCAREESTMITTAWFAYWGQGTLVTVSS VL: DIQMTQSPSSLSASVGDRVTITCRASENIYSNNAWYQQKPGKAPKLLIYGATYLASGVPSRFSGSGSGTDYTLTISSLQPEDFATYYCQHFWDTPYTFGQGTKVEIK , please.
665000

Recorded Bmax of Antibody 2E1_GF9 (antibody, V domains shown) VH: EVQLVESGGGLVQPGGSLRLSCAVSGYSITSGYSWNWIRQAPGKGLEWVAYISYDGNNNYNPSLKNRFTISRDTSKNTFYLQMNSLRAEDTAVYYCAREESTMITTAWFAYWGQGTLVTVSS VL: DIQMTQSPSSLSASVGDRVTITCRASETIYSNLAWYQQKPGKAPKLLIYGATNLAAGVPSRFSGSGSGTDYTLTISSLQPEDFATYYCQHFWDTPYTFGQGTKVEIK , please.
639000
